Tested on: P. falciparum stage V gametocytes
Design: BacTiter-Glo ATP luminescence viability of purified stage V gametocytes in 384-well plates, per cent inhibition versus DMSO
Conditions: 48 h, 5 µM; inhibitor
Hit rate of the full screen: of about 13,000 compounds, about 3,200 (25%) showed an effect of 50% or more. The list shows a part of the results.
# key: entry, value: % Inhibition

smiles-string	target-or-system	uom	% Inhibition
CCc1cc(Cc2cnc(N)nc2N)cc(CC)c1OC	P. falciparum stage V gametocytes	%	-15.83
Cc1nc(N)nc(N)c1OCc1ccc(Cl)c(Cl)c1	P. falciparum stage V gametocytes	%	-2.553
CCCc1cc(Cc2cnc(N)nc2N)ccc1OCCCCCC(=O)OCC	P. falciparum stage V gametocytes	%	-11.7
COc1ccc(CNC2CCCC2)cc1-c1ccc(S(=O)(=O)NCCN2CCCC2)s1	P. falciparum stage V gametocytes	%	107.1
O=C(Nc1ccc(-c2cccc(-c3nc4ccc(C(F)(F)F)cc4[nH]3)c2)cc1)c1ccc(=O)[nH]n1	P. falciparum stage V gametocytes	%	18.19
Cc1[nH]c2c(NCc3ccc(F)cc3)nccc2c1C	P. falciparum stage V gametocytes	%	15.19
COCCOc1ccc(Nc2nccc(-c3c(-c4cccc(NC(=O)c5c(F)cccc5F)c4)nn4ccccc34)n2)cc1F	P. falciparum stage V gametocytes	%	27.09
COCCOc1ccc(Nc2nccc(-c3c(-c4cccc(NC(=O)c5c(F)cccc5F)c4)nn4ccccc34)n2)cc1Cl	P. falciparum stage V gametocytes	%	-12.66
CC(=O)OCCN1C(=O)c2ccc3c4c(ccc(c24)C1=O)C(=O)N(CCOC(C)=O)C3=O	P. falciparum stage V gametocytes	%	10.44
CCOC(=O)C(=CNc1ccc(Cc2cnc(N)nc2N)cc1CC)C(=O)OCC	P. falciparum stage V gametocytes	%	53.58
O=C(N[C@H]1CCN(Cc2ccc(OCCCN3CCCCC3)cc2)C1)c1ccc(Cl)c(Cl)c1	P. falciparum stage V gametocytes	%	60
CCCCCCN1CCC(NCc2ccc(OCCN3CCCC3)cc2)CC1	P. falciparum stage V gametocytes	%	42.97
COC(=O)C1(NC(=O)c2ccc(-n3nc(C)c(-c4ccccc4)c3N)cc2)CCCC1	P. falciparum stage V gametocytes	%	30.38
CC(C)c1ccc(Cn2cc(-c3ccncc3)c3cc(OCc4ccccc4)ccc32)cc1	P. falciparum stage V gametocytes	%	2.514
CS(=O)(=O)Cc1ccc(Nc2nccc(-c3c(-c4cccc(NC(=O)c5c(F)cccc5F)c4)nn4ccccc34)n2)cc1	P. falciparum stage V gametocytes	%	-24.51
O=C(N[C@H]1CCN(Cc2ccc(OCCCN3CCCCC3)cc2)C1)c1cc(Cl)cc(Cl)c1	P. falciparum stage V gametocytes	%	21.94
C=CCc1cc(Br)ccc1OCCCON1C(N)=NC(N)=NC1(C)C	P. falciparum stage V gametocytes	%	13.45
